- protocolNotes: in vitro
- Type: in vitro ADME
- experimentalParameters: human, plasma, pH 7.4, % Bound R1

[
  {
    "compound": "CC(=O)CC(c1ccccc1)c1c(O)c2ccccc2oc1=O (stereo not shown)",
    "fraction unbound at 4 h, 5 µM": 0.012
  }
]

====

- protocolNotes: in vitro
- Assay type: in vitro ADME, mice
- experimentalParameters: mouse, plasma, pH 7.4, % Bound Mean ± SD
quantityName: fraction unbound at 4 h, 5 µM

[
  {
    "molecule": "CC(=O)CC(c1ccccc1)c1c(O)c2ccccc2oc1=O (stereo not shown)",
    "experimentalValue": 0.061
  }
]
